Source: patent US6545182B2

target: alpha 2C adrenergic receptor (Homo sapiens); construct: expressed in transfected cells; host or cells: NIH-3T3 cells, transient cotransfection by calcium phosphate; test: RSAT (Receptor Selection and Amplification Technology) assay, alpha 2C; format: cell-based; conditions: ratio of maximal effect to that of standard full agonist brimonidine
Sequence (P18825 whole entry, species assumed): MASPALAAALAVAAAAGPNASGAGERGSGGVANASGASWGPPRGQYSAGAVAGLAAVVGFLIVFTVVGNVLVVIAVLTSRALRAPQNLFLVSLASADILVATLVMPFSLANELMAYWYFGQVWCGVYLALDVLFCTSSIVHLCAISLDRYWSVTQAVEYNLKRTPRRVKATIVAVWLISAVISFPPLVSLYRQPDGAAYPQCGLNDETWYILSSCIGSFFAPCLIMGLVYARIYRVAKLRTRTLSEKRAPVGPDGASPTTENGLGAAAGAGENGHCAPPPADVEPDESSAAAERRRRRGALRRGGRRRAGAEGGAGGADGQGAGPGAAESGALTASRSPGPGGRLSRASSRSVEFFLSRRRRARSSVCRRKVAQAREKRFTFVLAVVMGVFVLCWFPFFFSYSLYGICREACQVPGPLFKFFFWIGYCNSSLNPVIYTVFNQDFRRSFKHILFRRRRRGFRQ
REPORTED_ENDPOINT: efficacy or intrinsic activity (value in parentheses) Alpha 2C

[
  {
    "COMPOUND": "OCCNC(=S)NCc1cccc(Cl)c1F [drawing 20]",
    "VALUE": 0.37
  },
  {
    "COMPOUND": "OCCNC(=S)NCc1cc(F)ccc1F",
    "VALUE": 0.51
  },
  {
    "COMPOUND": "OCCNC(=S)NCc1cc(Br)cc(Br)c1F",
    "VALUE": 0.58
  },
  {
    "COMPOUND": "OCCNC(=S)NCc1cc(C(F)(F)F)ccc1F",
    "VALUE": 0.7
  },
  {
    "COMPOUND": "OCCNC(=S)NCc1ccccc1Br",
    "VALUE": 0.4
  },
  {
    "COMPOUND": "OCCNC(=S)NCc1c(F)cccc1F",
    "VALUE": 0.4
  },
  {
    "COMPOUND": "Cc1cc(Cl)c(F)c(CNC(=S)NCCO)c1",
    "VALUE": 0.66
  },
  {
    "COMPOUND": "OCCNC(=S)NCc1cccc(Cl)c1Cl",
    "VALUE": 0.33
  },
  {
    "COMPOUND": "OCCNC(=S)NCc1cc(F)ccc1Br",
    "VALUE": 0.63
  },
  {
    "COMPOUND": "OCCNC(=S)NCc1ccccc1I",
    "VALUE": 0.7
  },
  {
    "COMPOUND": "Cc1ccc(CNC(=S)NCCO)cc1",
    "VALUE": 0.4
  },
  {
    "COMPOUND": "OCCNC(=S)NCc1cccc(I)c1",
    "VALUE": 0.58
  },
  {
    "COMPOUND": "OCCNC(=S)NCc1cc(I)ccc1F",
    "VALUE": 0.68
  },
  {
    "COMPOUND": "OCCNC(=S)NCc1ccccc1C(F)(F)F",
    "VALUE": 0.4
  },
  {
    "COMPOUND": "COc1ccc(F)cc1CNC(=S)NCCO",
    "VALUE": 0.78
  }
]

----------
Overview of recorded efficacy or intrinsic activity (value in parentheses) Alpha 2B for various compounds
molecular target: alpha 2B adrenergic receptor (Homo sapiens, UniProt P18089); construct: expressed in transfected cells; host or cells: NIH-3T3 cells, transient cotransfection by calcium phosphate; assay: RSAT (Receptor Selection and Amplification Technology) assay, alpha 2B; type: cell-based; conditions: ratio of maximal effect to that of standard full agonist brimonidine
Sequence (P18089 whole entry): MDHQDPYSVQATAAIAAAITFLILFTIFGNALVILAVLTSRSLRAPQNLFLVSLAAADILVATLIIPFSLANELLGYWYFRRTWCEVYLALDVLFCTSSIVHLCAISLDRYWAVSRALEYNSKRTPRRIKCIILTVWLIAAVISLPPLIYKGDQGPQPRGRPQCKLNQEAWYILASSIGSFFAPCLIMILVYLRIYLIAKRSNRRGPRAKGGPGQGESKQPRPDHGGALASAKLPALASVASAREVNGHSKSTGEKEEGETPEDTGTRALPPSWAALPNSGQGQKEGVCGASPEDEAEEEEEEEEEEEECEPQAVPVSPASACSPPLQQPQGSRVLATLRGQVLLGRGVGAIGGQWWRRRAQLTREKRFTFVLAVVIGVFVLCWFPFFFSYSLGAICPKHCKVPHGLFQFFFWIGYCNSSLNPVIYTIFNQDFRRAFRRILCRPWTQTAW
REPORTED_ENDPOINT: efficacy or intrinsic activity (value in parentheses) Alpha 2B

[
  {
    "COMPOUND_SMILES": "OCCNC(=S)NCc1cccc(C(F)(F)F)c1Cl",
    "VALUE": 1.1
  },
  {
    "COMPOUND_SMILES": "OCCNC(=S)NCc1ccc(F)c(Cl)c1",
    "VALUE": 0.6
  },
  {
    "COMPOUND_SMILES": "OCCNC(=S)NCc1c(F)c(F)c(F)c(F)c1F",
    "VALUE": 0.73
  },
  {
    "COMPOUND_SMILES": "Cc1cc(Cl)c(F)c(CNC(=S)NCCO)c1",
    "VALUE": 1.06
  },
  {
    "COMPOUND_SMILES": "OCCNC(=S)NCc1cccc(Br)c1",
    "VALUE": 0.9
  },
  {
    "COMPOUND_SMILES": "OCCNC(=S)NCc1c(F)cccc1C(F)(F)F",
    "VALUE": 0.68
  },
  {
    "COMPOUND_SMILES": "Cc1cc(Br)c(F)c(CNC(=S)NCCO)c1",
    "VALUE": 0.73
  },
  {
    "COMPOUND_SMILES": "Cc1cccc(CNC(=S)NCCO)c1",
    "VALUE": 0.9
  },
  {
    "COMPOUND_SMILES": "OCCNC(=S)NCc1ccc(F)cc1C(F)(F)F",
    "VALUE": 0.72
  },
  {
    "COMPOUND_SMILES": "OCCNC(=S)NCc1cccc(I)c1F",
    "VALUE": 1.35
  },
  {
    "COMPOUND_SMILES": "OCCNC(=S)NCc1ccccc1I",
    "VALUE": 1.26
  },
  {
    "COMPOUND_SMILES": "OCCNC(=S)NCc1cccc(C(F)(F)F)c1",
    "VALUE": 0.73
  },
  {
    "COMPOUND_SMILES": "COc1cccc(CNC(=S)NCCO)c1",
    "VALUE": 0.40
  },
  {
    "COMPOUND_SMILES": "Cc1cc(CNC(=S)NCCO)c(F)c(F)c1F",
    "VALUE": 0.92
  }
]
